TARGET_OR_SYSTEM: 5-lipoxygenase (Rattus norvegicus, UniProt P12527)
Construct: host or cells: RBL-1 (rat basophilic leukemia cells)
Sequence (P12527 whole entry): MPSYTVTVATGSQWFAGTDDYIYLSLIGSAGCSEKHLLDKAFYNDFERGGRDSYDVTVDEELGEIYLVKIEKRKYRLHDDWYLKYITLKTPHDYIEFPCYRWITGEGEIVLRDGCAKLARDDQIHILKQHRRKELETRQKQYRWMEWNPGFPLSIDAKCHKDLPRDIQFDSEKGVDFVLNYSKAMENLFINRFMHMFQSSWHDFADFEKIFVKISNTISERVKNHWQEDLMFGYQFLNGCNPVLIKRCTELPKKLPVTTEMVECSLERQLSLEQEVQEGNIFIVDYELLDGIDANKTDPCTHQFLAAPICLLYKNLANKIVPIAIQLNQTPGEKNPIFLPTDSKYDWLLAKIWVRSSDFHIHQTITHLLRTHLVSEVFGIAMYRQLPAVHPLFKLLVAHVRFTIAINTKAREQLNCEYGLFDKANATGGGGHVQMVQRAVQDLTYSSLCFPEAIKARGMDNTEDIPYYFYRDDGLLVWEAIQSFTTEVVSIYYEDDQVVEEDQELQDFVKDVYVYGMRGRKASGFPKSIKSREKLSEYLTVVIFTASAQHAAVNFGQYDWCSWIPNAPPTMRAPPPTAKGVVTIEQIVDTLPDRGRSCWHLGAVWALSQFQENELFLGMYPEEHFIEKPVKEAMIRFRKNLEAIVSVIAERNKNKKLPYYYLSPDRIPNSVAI
ASSAY_SUMMARY: 5-lipoxygenase inhibition assay (RBL-1 supernatant, arachidonic acid, HPLC of 5-HETE)
Type: biochemical, rat (basophilic leukemia cells RBL-1, ATCC CRL1378)
EXPERIMENTAL_CONDITIONS: text of Test Example 1, not shown in Table 1; read-out: 5-lipoxygenase inhibitory activity IC50 value
Experimental: Rat basophilic leukemia cells (RBL-1, ATCC CRL1378) were cultured in Dulbecco modified Eagle's medium containing 10% new-born bovine serum. Cultured cells were collected and washed twice with a 50 mM Tris-buffered saline (containing 154 mM sodium chloride, pH: 7.4, hereinafter described as TBS). The cell suspension (4×10^7 cells/ml) was then sonicated and centrifuged at 10,000×g for 10 minutes. […] They were measured in the same method as in Test Example 2.
TEST_READOUT: IC50
Number first, unit second: that is the form wanted.

[ask] # assay system 5-lipoxygenase (Rattus norvegicus, UniProt P12527): give IC50 of O=c1cc(-c2ccccc2)c2ccc(O)c(O)c2o1 [Comp. Example 3, reference compound]
[reply] 0.64 µM
